# Test system: Escherichia coli TOP10;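 note: peptides expressed intracellularly from a pBAD plasmid library in pooled LB shake-flask culture, induced with 0.3% L-arabinose, DNA abundance read by NGS, three biological replicates, DESeq2 with apeglm shrinkage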
# measurement-protocol: shrunken log2 fold change of peptide-encoding DNA abundance (4.5 h post-induction vs induction); higher = less antimicrobial activity (less host growth inhibition)
# assay-setup: time post-induction: 4.5 h; library: site-saturation at positions 5, 18, 19, 20
measured-quantity: shrunken log2 fold change
Lab note: write the figure by itself, no unit.

Worked set:
sequence	shrunken log2 fold change
RRIRQRPPRLPRPRPRPPDKPRP	-0.116
RRIRTRPPRLPRPRPRPHQSPRP	-0.179
RRIRRRPPRLPRPRPRPYRLPRP	-0.0421
RRIRHRPPRLPRPRPRPIVCPRP	-0.0297
RRIRFRPPRLPRPRPRPAFHPRP	-0.228
RRIRPRPPRLPRPRPRPKDVPRP	-0.115

The reported shrunken log2 fold change of the sequence "RRIRARPPRLPRPRPRPGREPRP" was 0.388

The reported shrunken log2 fold change of the sequence "RRIRARPPRLPRPRPRPTRMPRP" was 0.865

The reported shrunken log2 fold change of the sequence "RRIRQRPPRLPRPRPRPAPSPRP" was 0.492

The reported shrunken log2 fold change of the sequence "RRIRTRPPRLPRPRPRPQCNPRP" was -0.0399

The reported shrunken log2 fold change of the sequence "RRIRMRPPRLPRPRPRPQEEPRP" was -0.0207

The reported shrunken log2 fold change of the sequence "RRIRARPPRLPRPRPRPMHNPRP" was -0.00444

The reported shrunken log2 fold change of the sequence "RRIRKRPPRLPRPRPRPERWPRP" was 1.15

The reported shrunken log2 fold change of the sequence "RRIRWRPPRLPRPRPRPQAWPRP" was 0.23

The reported shrunken log2 fold change of the sequence "RRIRFRPPRLPRPRPRPPHKPRP" was -0.027

The reported shrunken log2 fold change of the sequence "RRIRGRPPRLPRPRPRPAEPPRP" was 0.176

The reported shrunken log2 fold change of the sequence "RRIRSRPPRLPRPRPRPFGAPRP" was 0.162

The reported shrunken log2 fold change of the sequence "RRIRPRPPRLPRPRPRPDIKPRP" was -0.317

The reported shrunken log2 fold change of the sequence "RRIRSRPPRLPRPRPRPIEFPRP" was -0.387

The reported shrunken log2 fold change of the sequence "RRIRRRPPRLPRPRPRPCHHPRP" was -0.0387

The reported shrunken log2 fold change of the sequence "RRIRYRPPRLPRPRPRPLRIPRP" was -0.36

The reported shrunken log2 fold change of the sequence "RRIRCRPPRLPRPRPRPRWFPRP" was 0.0519

The reported shrunken log2 fold change of the sequence "RRIRRRPPRLPRPRPRPLTKPRP" was 0.132

The reported shrunken log2 fold change of the sequence "RRIRMRPPRLPRPRPRPPMSPRP" was -0.114

The reported shrunken log2 fold change of the sequence "RRIRKRPPRLPRPRPRPAQKPRP" was -0.0358

The reported shrunken log2 fold change of the sequence "RRIRSRPPRLPRPRPRPREQPRP" was 0.796

Hey, just so you know, these numbers are from the supplement of paper PMC9112550.
